# targetDesc: GGTase I (Homo sapiens, UniProt P49354+P53609)
# Construct: GGTase I and FTase activities from 60,000×g supernatants of human Burkitt's lymphoma (Daudi) cells
# protocolDescription: In vitro GGTase I activity assay ([3H]GGPP transfer to H-Ras-CVLL)
# testSettings: in vitro; H-Ras-CVLL, [3H]GGPP; read-out: IC50, inhibition of GGTase I activity
# Method: A brief discussion of exemplary materials and methods follows. In vitro FTase and GGTase I activity assays were performed. GGTase I and FTase activities from 60,000×g supernatants of human Burkitt's lymphoma (Daudi) cells (American Type Culture Collection (ATCC), Rockville, Md.) were assayed as described previously.
outcomeMeasure: IC50 (nM)
Write the number in nM without appending the unit.

Field IC50 (system: GGTase I (Homo sapiens, UniProt P49354+P53609)) for entry Cc1nc[nH]c1CN1CCN(C(=O)N[C@@H](CC(C)C)C(=O)O)[C@@H](Cc2ccccc2)C1=O = 9.5

###

# targetDesc: FTase (Homo sapiens, UniProt P49354+P49356)
# Construct: GGTase I and FTase activities from 60,000×g supernatants of human Burkitt's lymphoma (Daudi) cells
# protocolDescription: In vitro FTase activity assay ([3H]FPP transfer to H-Ras-CVLS)
# testSettings: read-out: IC50, inhibition of FTase activity
outcomeMeasure: IC50 (µM)
Write the number in µM without appending the unit.

Reported IC50 ( Cc1nc[nH]c1CN1CCN(C(=O)N[C@@H](CC(C)C)C(=O)O)[C@@H](Cc2ccccc2)C1=O [GGTI-2418] ) = 53
